Reported growth values for a set of molecules
- Test system: SK-OV-3 ovarian
- EXPERIMENTAL_DETAILS: NCI-60 one-dose screen, 48 h (100 = growth as untreated, 0 = no growth, -100 = all killed)
- TEST_CONDITIONS: 10 µM unless noted
Compounds without any hit were thinned out: in the full panel of roughly 83,000, 20% have a hit.
Give the quantity in %, number only.

Solved entries:
MOLECULE	SYSTEM	growth / %
O=c1n(CC2CO2)c(=O)n(CC2CO2)c(=O)n1CC1CO1 (stereo unspecified)	SK-OV-3 ovarian	68.6
Oc1ccc(Cc2ccccc2Cl)c(O)c1	SK-OV-3 ovarian	104
CCOC(=O)c1c(C)cc(=O)oc1C	SK-OV-3 ovarian	103
COc1ccc(Nc2ccc3ccccc3c2)cc1	SK-OV-3 ovarian	72.6

Prompt: Given the molecule COc1cc(C(O)C2C(=O)OCC2C2(c3ccc4c(c3)OCO4)SCCCS2)cc(OC)c1OC (stereo unspecified) , what is its reported growth?
Response: 105

Prompt: Note, next up: OCC1OC(O)C(O)C(O)C1O (stereo unspecified)
Response: 109

Prompt: Next up: CC1CCC2(OC1)OC1CC3C4CC=C5CC(O)CCC5(C)C4CCC3(C)C1C2C (stereo unspecified)
Response: 114

Prompt: Follow-up item: C/C(=C\c1ccccc1)c1ccccn1
Response: 106

Prompt: Cool, now OC1COC(OCc2ccccc2)C(O)C1O (stereo unspecified)
Response: 98.9

Prompt: Try CCCCOc1ccc(Nc2cc(Cl)ccc2C(=O)O)cn1 next.
Response: 108

Prompt: Moving on to CCCCOC(=O)/C=C\C(=O)NC(N)=O
Response: 111

Prompt: Thanks! And O=C(O)CCCl ?
Response: 118

Prompt: Consider next the molecule Cn1cnc([N+](=O)[O-])c1Sc1ncn[nH]1 in the same way.
Response: 115

Prompt: Please give the result for ClCCOCCOc1ccc(C2CCCCC2)cc1 too.
Response: 102

Prompt: Now give it for OCCN1CCCCCCC1 too.
Response: 103

Prompt: Same for Nc1cc(N)c(N)cc1N
Response: 98.4

Provenance of the data: PubChem BioAssay (NCI)
